method_notes: NOVARTIS: Cytotoxicity against human hepatocellular carcinoma cell line (Huh7)
Format: toxicity, cell-based, Huh-7
cond: Huh7 cells (hepatocellular carcinoma cell line)
CC50 values, listed per item

[
  {
    "compound": "COc1ccc(NC(=O)c2cc3cc(C4(O)CCN(CC(C)c5ccccc5)CC4)ccc3o2)cc1 (stereo not given)",
    "CC50": "> 100 µM"
  },
  {
    "compound": "CC(Oc1ccc(Cl)cc1Cl)c1nc(-c2ccc(NC(=O)c3cccs3)cc2)no1 (stereo not given)",
    "CC50": "25.6 µM"
  },
  {
    "compound": "COc1cc(C=NNC(=O)c2ccc(C(=O)NN=Cc3ccc(O)c(OC)c3)cc2)ccc1O",
    "CC50": "> 100 µM"
  },
  {
    "compound": "COC(=O)C(Nc1ccc(Cl)c(Cl)c1)(c1cc(C)c(O)c(C)c1)C(F)(F)F (stereo not given)",
    "CC50": "> 10 µM"
  },
  {
    "compound": "Cc1oc(-c2cccc(C(F)(F)F)c2)cc1C(=O)O",
    "CC50": "> 10 µM"
  }
]

* * *

Tested on: Plasmodium falciparum
method_notes: NOVARTIS: Inhibition of Plasmodium falciparum 3D7 (drug-susceptible) proliferation in erythrocyte-based infection assay
Assay type: functional, organism-based
cond: Plasmodium falciparum, 3D7
readout: log10(EC50) (log10 of the value in nM)

[
  {
    "molecule": "c1cncc(CCNc2nccn3c(-c4ccc5ccccc5c4)cnc23)c1",
    "log10(EC50)": 2.06
  },
  {
    "molecule": "COc1cc(C=C(C#N)c2nc3ccccc3[nH]2)ccc1OCc1ccc(Cl)cc1",
    "log10(EC50)": 2.88
  },
  {
    "molecule": "COc1ccc(Nc2nc(NN=Cc3cc([N+](=O)[O-])ccc3OC)nc(Nc3ccc([N+](=O)[O-])cc3)n2)cc1",
    "log10(EC50)": 2.86
  },
  {
    "molecule": "COc1ccc2c(Cl)c(C(=O)Nc3cc(C)on3)sc2c1Cl",
    "log10(EC50)": 2.63
  },
  {
    "molecule": "Cn1ccnc1C(=O)NNc1ncc(C(F)(F)F)cc1Cl",
    "log10(EC50)": 2.78
  },
  {
    "molecule": "CC(C)CNc1nc(NCCCN2CCCCC2C)ncc1C(=O)NCCc1ccccc1 (stereo not given)",
    "log10(EC50)": 2.58
  },
  {
    "molecule": "c1ccc2c(c1)OC13CCCCC1C2NCC3 (stereo not given)",
    "log10(EC50)": 2.43
  },
  {
    "molecule": "COC(=O)C1=C(C)NC2=C(C(=O)CC(c3ccc(OC)cc3)C2)C1c1ccc(F)cc1 (stereo not given)",
    "log10(EC50)": 2.28
  },
  {
    "molecule": "O=C1Cc2c([nH]c3ccc(OCc4ccccc4)cc23)C2CC=CCC12 (stereo not given)",
    "log10(EC50)": 3.20
  },
  {
    "molecule": "O=c1c2c3c(sc2ncn1Cc1cccc(Cl)c1)CC(N1CCCCC1)CC3 (stereo not given)",
    "log10(EC50)": 3.47
  },
  {
    "molecule": "CCN(CC)CCCNC(=S)N(CCN(C)C)Cc1cc2cc(C)cc(C)c2[nH]c1=O",
    "log10(EC50)": 3.38
  },
  {
    "molecule": "CCOC(=O)c1cnc2ccc(OC)cc2c1Nc1ccc(N2CCN(C)CC2)cc1",
    "log10(EC50)": 3.04
  },
  {
    "molecule": "CCCCC(=O)NC(c1cccc([N+](=O)[O-])c1)c1ccc2cccnc2c1O (stereo not given)",
    "log10(EC50)": 2.58
  },
  {
    "molecule": "O=C(NN=Cc1ccc(O)cc1O)c1ccncc1",
    "log10(EC50)": 3.68
  },
  {
    "molecule": "COc1cccc(-c2ccc(O)c(CNC3CCN(Cc4ccccc4)CC3)c2)n1",
    "log10(EC50)": 2.58
  },
  {
    "molecule": "Cc1ccc(C)c(Nc2nc(NCc3ccccc3)c3ccccc3n2)c1",
    "log10(EC50)": 2.39
  },
  {
    "molecule": "CCCC(=O)NC(C(=O)N1CCN(C(c2ccccc2)c2ccccc2)CC1)C(C)C (stereo not given)",
    "log10(EC50)": 2.59
  },
  {
    "molecule": "c1ccc(C[n+]2ccc(-c3nc4ccccc4s3)cc2)cc1",
    "log10(EC50)": 3.27
  },
  {
    "molecule": "Oc1ccccc1CNC(Cc1ccccc1)C(O)(c1ccccc1)c1ccccc1 (stereo not given)",
    "log10(EC50)": 2.31
  },
  {
    "molecule": "O=C(NCc1cccnc1)[C@@H]1C[C@H](NC2CCN(CCc3ccccc3)CC2)CN1Cc1ccc(Cl)cc1",
    "log10(EC50)": 1.95
  },
  {
    "molecule": "O=C(Nc1ccc(-c2cc(-c3ccccc3)nc(-c3ccc(NC(=O)c4cccc([N+](=O)[O-])c4)cc3)n2)cc1)c1cccc([N+](=O)[O-])c1",
    "log10(EC50)": 3.13
  },
  {
    "molecule": "CCOC(=O)C1=C(C)NC2=C(C(=O)CC(c3ccc(Cl)cc3)C2)C1c1ccc(F)cc1 (stereo not given)",
    "log10(EC50)": 1.98
  },
  {
    "molecule": "CCOC(=O)c1cnc2cc(OCC(C)C)c(OCC(C)C)cc2c1O [BUQUINOLATE]",
    "log10(EC50)": 2.81
  },
  {
    "molecule": "O=C1c2ccccc2-c2nc3nnnn3nc21",
    "log10(EC50)": 2.38
  },
  {
    "molecule": "Clc1ccccc1CN1CCc2nc(N3CCCCC3)sc2C1",
    "log10(EC50)": 2.77
  },
  {
    "molecule": "Cc1ccn2c(NC(C)(C)CC(C)(C)C)c(-c3ccccc3OC(=O)C(c3ccccc3)c3ccccc3)nc2c1",
    "log10(EC50)": 2.87
  },
  {
    "molecule": "Oc1ccc(-c2cccnc2)cc1CNCC1CC2C=CC1C21CC1 (stereo not given)",
    "log10(EC50)": 2.92
  },
  {
    "molecule": "CCOC(=O)C1CCN(C(c2cc3cc(OC)c(OC)cc3[nH]c2=O)c2nnnn2Cc2ccccc2)CC1 (stereo not given)",
    "log10(EC50)": 2.62
  },
  {
    "molecule": "COc1cc2cc(C(=O)Nc3ccccc3)c(N)nc2cc1OC",
    "log10(EC50)": 2.61
  },
  {
    "molecule": "CN(C)c1ccc(N/C=C/C(=O)C(C)(C)C)cc1",
    "log10(EC50)": 3.16
  },
  {
    "molecule": "C=CC1CN2CCC1CC2C(OC(=O)c1ccco1)c1ccnc2ccccc12 (stereo not given)",
    "log10(EC50)": 1.55
  }
]
